# Protocol: I.V. and P.O. Dosing in Mice
# Type: in vivo
# Applied Conditions: mouse, in vivo, iv, 2 mg/kg, dose i.v. 2 mg/kg, read-out: aucinf obs (i.v.)
Measurement Name: AUC(0-inf) (ng·h/mL)

(A) CN1CCN(c2ccc(N/C=C3\C(=O)NC(=O)c4ccc(-c5ccsc5)cc43)cc2)CC1
(B) CCCOc1cnc(CNC=C2C(=O)NC(=O)c3ccc(I)cc32)cc1O
Param pair: A , B . Output: the one whose AUC(0-inf) is numerically greater. Mark your answer with the label of the selected entry. B

###

# Experimental System: cyclin D1/cdk 4 enzyme (Homo sapiens, UniProt P11802)
# Construct: made in house; host or cells: Sf9 insect cells, recombinant baculovirus
# Sequence (P11802 whole entry, species assumed): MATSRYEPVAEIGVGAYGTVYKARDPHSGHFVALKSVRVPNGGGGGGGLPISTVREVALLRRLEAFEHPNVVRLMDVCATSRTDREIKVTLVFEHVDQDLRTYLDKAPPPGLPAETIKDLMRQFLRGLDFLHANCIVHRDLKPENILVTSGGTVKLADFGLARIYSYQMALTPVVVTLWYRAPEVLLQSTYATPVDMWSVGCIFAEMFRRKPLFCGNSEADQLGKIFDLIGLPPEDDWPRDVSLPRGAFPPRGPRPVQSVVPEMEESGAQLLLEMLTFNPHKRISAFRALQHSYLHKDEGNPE
# Sequence (P24385 whole entry partner, species assumed): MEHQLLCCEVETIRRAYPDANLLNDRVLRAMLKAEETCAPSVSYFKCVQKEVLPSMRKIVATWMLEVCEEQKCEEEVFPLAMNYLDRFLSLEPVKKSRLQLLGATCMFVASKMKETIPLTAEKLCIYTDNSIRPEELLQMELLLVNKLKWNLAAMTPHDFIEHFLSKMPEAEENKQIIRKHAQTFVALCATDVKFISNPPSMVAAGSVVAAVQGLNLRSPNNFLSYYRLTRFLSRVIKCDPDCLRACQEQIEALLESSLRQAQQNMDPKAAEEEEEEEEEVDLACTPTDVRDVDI
# Protocol: CDK4 ELISA kinase assay (phospho-Rb ser 795 detection)
# Assay type: biochemical
# Applied Conditions: In Vitro Enzyme Assay, cyclin D1/cdk 4, read-out: CDK4 IC50
Measurement Name: IC50 (nM)

- Compound: "O=C1NC(=O)c2ccc(-c3ccc4[nH]ccc4c3)cc2C1=CNCc1ccc(O)c(O)c1"
  IC50 [nM]: 40

(A) O=C1NC(=O)c2ccccc2C1=CNCc1ccc(S(=O)(=O)NCc2cccnc2)cc1
(B) O=C1NC(=O)c2ccc(I)cc2/C1=C/NCc1cc(O)c(OCCN2CCCC2)cn1
(C) CN1CCN(c2ccc(NC=C3C(=O)NC(=O)c4ccc(-c5ccc(C(F)(F)F)cc5)cc43)cc2)CC1
(D) COc1ccc(CNC=C2C(=O)NC(=O)c3ccc(C=Cn4ccnc4)cc32)cc1O [Example 733]
Hello, I need these entries ordered by IC50, highest reading first. Thanks! Please respond with the labels ordered as the question requires. A, C, B, D

(1) COc1ccc(CNC=C2C(=O)NC(=O)c3ccc(C=CCN4CC(=O)NC4=O)cc32)cc1O
(2) O=C1NC(=O)c2ccccc2C1=CNc1ccc(CN2CCCC(O)C2)cc1 (centres unmarked)
Hi! Which is lower in terms of IC50, the first one 1 or the second one 2 ? Your answer should be the label attached to the chosen record. 1
(1: 110 nM, 2: 25700 nM)
